The reported numbers originate from PubChem BioAssay AID651710.

- assayed-system: DNA repair protein RAD52 homolog (Homo sapiens)
- assay-comment: RAD52 DNA annealing inhibitors, primary screen, biochemical, FRET, single point, set 2 (AID 651710)
- condition: recombinant RAD52 DNA annealing, FRET fluorescence; at 18.7 µM; stronger effect = higher value
Screen size: about 360,000 compounds; about 1,600 (0.44%) were called active. The sample holds actives, similar compounds and a random draw of the others, so the mix is not that of the screen.
Listed molecules paired with reported inhibition
Write the value in % as a bare number.

CCOC(=O)c1ccc(NC(=O)C2CC(=O)N(c3ccc4c(c3)OCCO4)C2)cc1 (centres undefined) | -4.32
CCN(CC(=O)Nc1ccc(NC(C)=O)cc1)C(=O)C1CC(=O)N(c2ccc3c(c2)OCCO3)C1 (centres undefined) | 74.7
COCC(=O)N(C)C[C@@H]1Oc2ncc(C#Cc3ccccc3OC)cc2C(=O)N([C@@H](C)CO)C[C@H]1C | 0.963
O=C1CCC(C(=O)OCC(=O)Nc2ccc(OC(F)F)cc2)=NN1 | 54.8
C[C@@H](NC(=O)C[C@H]1C[C@@H]2c3cc(NC(=O)c4ccc5c(c4)OCO5)ccc3O[C@@H]2[C@@H](CO)O1)c1ccccc1 | 8.57
CCCC1=Nc2cc(C(=O)NCCN3CCCC3)ccc2Sc2ccccc21 | 34
COc1cccc(S(=O)(=O)Nc2ccc3c(c2)[C@@H]2C[C@@H](CC(=O)NCc4ccc(Cl)cc4)O[C@H](CO)[C@@H]2O3)c1 | 10.3
COc1ccc(NC(=O)N(C)C[C@@H]2Oc3c(NS(=O)(=O)c4ccc(OC)cc4)cccc3C(=O)N([C@H](C)CO)C[C@@H]2C)cc1 | -3.75
CCN(CC(=O)Nc1ccc(NC(C)=O)cc1)C(=O)C1CC(=O)N(Cc2ccc(C)cc2)C1 (centres undefined) | -6.68
CO[C@H]1CN(C)C(=O)c2cc(NC(=O)NC(C)C)ccc2OC[C@H](C)N(C(=O)CN(C)C)C[C@H]1C | -12.8

Query :: Look up inhibition with DNA repair protein RAD52 homolog (Homo sapiens) for this molecule: CS(=O)(=O)N1[C@H](C#N)[C@H](c2ccc(C#CC3CC3)cc2)[C@H]1CO
Result :: -26.1

Query :: Further, for CN1C(=O)c2cc(NC(=O)C3CCOCC3)ccc2OC[C@@H]2O[C@H](CC(=O)NCc3ccccc3F)CC[C@H]21 ?
Result :: -6.2

Query :: Further, for C[C@@H]1CN([C@@H](C)CO)S(=O)(=O)c2ccc(/C=C/c3ccccc3)cc2O[C@H]1CN(C)C(=O)C1CC1 ?
Result :: 14.6

Query :: Further, for CCCN(C)C[C@@H]1Oc2ncc(-c3cccc(C(=O)N(C)C)c3)cc2C(=O)N([C@H](C)CO)C[C@@H]1C ?
Result :: -4.17

Query :: Further, for CC(=O)N1[C@@H](CO)[C@H](c2ccccc2)[C@@H]1CN(C(=O)c1ccccc1)C(C)C ?
Result :: -18

Query :: Further, for COc1ccc(CNC(=O)C[C@H]2C[C@H]3c4cc(NS(C)(=O)=O)ccc4O[C@H]3[C@@H](CO)O2)cc1 ?
Result :: 9.84

Query :: Further, for CC(C)NC(=O)N1C[C@@H]2[C@H](c3ccccc31)[C@H](CO)N2C(=O)C1CCCC1 ?
Result :: 0.805

Query :: Further, for COCC(=O)Nc1ccc2c(c1)OC[C@H](C)NC[C@H](C)[C@H](OC)CN(C)C2=O ?
Result :: -2.26

Query :: Further, for Cc1cccc(NC(=S)NC23CN4CN(CN(C4)C2)C3)c1 ?
Result :: 82.8

Query :: Further, for CC(C)NC(=O)N(C)C[C@H]1Oc2ccc(N(C)C)cc2C(=O)N([C@@H](C)CO)C[C@H]1C ?
Result :: -18.9

Query :: Further, for O=C1CN(S(=O)(=O)c2ccccc2)C[C@H]2[C@H](c3ccc(C4=CCCC4)cc3)[C@@H](CO)N12 ?
Result :: -19.1

Query :: Further, for COc1ccc2c3c(n(C)c2c1)[C@@H](CO)NCC31CCN(CC2CC2)CC1 ?
Result :: 55.9

Query :: Further, for S=C(NCCCc1cnc[nH]1)NCCCN(Cc1ccc(Cl)c(Cl)c1)c1ccc(Br)cn1 ?
Result :: -1.73

Query :: Further, for C[C@H]1CN([C@@H](C)CO)C(=O)c2cccc(NS(=O)(=O)c3cn(C)cn3)c2O[C@H]1CN(C)C(=O)Nc1ccc2c(c1)OCO2 ?
Result :: -13.3

Query :: Further, for CN(C)C(=O)C[C@@H]1C[C@@H]2c3cc(NC(=O)C4CCOCC4)ccc3O[C@@H]2[C@@H](CO)O1 ?
Result :: -0.675

Query :: Further, for CCN1CCN(CCNC(=O)c2ccc(/C=C3/Sc4ccccc4N(Cc4cccc(C)c4)C3=O)cc2)CC1 ?
Result :: 51.6
